- Test system: OVCAR-5 ovarian
- assayName: NCI-60 one-dose screen, 48 h (100 = growth as untreated, 0 = no growth, -100 = all killed)
- measurementConditions: 10 µM unless noted
The panel holds about 83,000 compounds, 20% with a hit somewhere; the sample as a whole holds those more often.
growth by entry:

>  <molecule>
CN(C)CC1=NC2SC=C(c3ccccc3)C2C(=O)N1CC#N (centres undefined)

>  <unitsSymbol>
%

>  <growth>
89.7

$$$$
>  <molecule>
CCCCN(CCCC)CC(C)(C)C(O)c1ccc(OC)c2ccccc12 (centres undefined)

>  <unitsSymbol>
%

>  <growth>
57.6

$$$$
>  <molecule>
CC(C)C(=O)Nc1n[nH]c2cc(-c3cccc(NS(=O)(=O)C4CC4)c3)ccc12

>  <unitsSymbol>
%

>  <growth>
87.4

$$$$
>  <molecule>
Cn1c2c(c3ccc(Cl)c(Cl)c31)C(C#N)C1(CCNCC1)NC2=O (centres undefined)

>  <unitsSymbol>
%

>  <growth>
62.1

$$$$
>  <molecule>
O=C(CCCCCCN1CC(=O)N2[C@@H](c3ccccc3Cl)c3[nH]c4ccccc4c3C[C@H]2C1=O)NO

>  <unitsSymbol>
%

>  <growth>
61

$$$$
>  <molecule>
C[C@H]1[C@H]2[C@H]3CC[C@@H]4[C@@]5(C)C/C(=C/c6ccco6)C(=O)C(C)(C)[C@@H]5CC[C@@]4(C)[C@]3(C)CC[C@]23CO[C@]1(C)[C@@H](C(=O)/C=C\c1ccco1)C3

>  <unitsSymbol>
%

>  <growth>
113

$$$$
>  <molecule>
CCCCC1CCCCN1C(=O)OCC (centres undefined)

>  <unitsSymbol>
%

>  <growth>
98.4

$$$$
>  <molecule>
O=C(Nc1ccccc1Cl)Oc1ccc(-c2ccccc2)cc1

>  <unitsSymbol>
%

>  <growth>
98.9

$$$$
>  <molecule>
COc1ccc(-c2nc3c(N)c(CO)c(C)nc3o2)cc1

>  <unitsSymbol>
%

>  <growth>
85.1

$$$$

----------
growth by entry:
- Tested on: MDA-MB-231 breast
- assayName: NCI-60 one-dose screen, 48 h (100 = growth as untreated, 0 = no growth, -100 = all killed)
- measurementConditions: 10 µM unless noted
About 83,000 compounds went through this panel and 20% of them were active in at least one assay; those are over-represented in the sample as a whole. Calls of active or inactive are those of the source. The calls were made as follows: active = growth percent below 10; inactive = the rest.
measuredParameter: growth

>  <molecule>
Cc1ccc(C2SCC(=O)N2Cc2ccccc2)cc1 (centres undefined)

>  <measuredParameter>
growth

>  <valueMeasured>
98.3% (inactive)

$$$$
>  <molecule>
CC1(C)CC[C@]2(C(=O)N3CCOCC3)CC[C@]3(C)C(=CC[C@@H]4[C@@]5(C)CC[C@H](OC(=O)c6cccnc6)C(C)(C)[C@@H]5CC[C@]43C)[C@@H]2C1

>  <measuredParameter>
growth

>  <valueMeasured>
70.4% (inactive)

$$$$
>  <molecule>
Cc1ccc(C(=NN=C(N)N)c2ccc(C)cc2)cc1

>  <measuredParameter>
growth

>  <valueMeasured>
-11.3% (active)

$$$$
>  <molecule>
CSc1n(Cc2ccc3ccccc3c2)c(C)c[n+]1Cc1ccc2ccccc2c1

>  <measuredParameter>
growth

>  <valueMeasured>
-30.8% (active)

$$$$
>  <molecule>
CCN(CC)CCCNc1ccc(Nc2ccc(OC)cc2)cc1

>  <measuredParameter>
growth

>  <valueMeasured>
34.6% (inactive)

$$$$
>  <molecule>
CC1=C([Se]CC(OC(=O)[C@@H](CO)NC(=O)OC(C)(C)C)C(=O)NC(C)(C)C)C(=O)c2ccccc2C1=O (some centres undefined)

>  <measuredParameter>
growth

>  <valueMeasured>
-82.2% (active)

$$$$
>  <molecule>
CCCCNC(=O)Oc1ccc2c(=O)c3sc4c(=O)c5ccccc5c(=O)c4c3c(=O)c2c1

>  <measuredParameter>
growth

>  <valueMeasured>
-22.2% (active)

$$$$
>  <molecule>
CC(C)CC(NC(=O)CN(Cc1ccccc1)S(C)(=O)=O)C(=O)O (centres undefined)

>  <measuredParameter>
growth

>  <valueMeasured>
111% (inactive)

$$$$
>  <molecule>
c1cc2ccc3cc2cc1CNCCOCCNCc1ccc2ccc(cc2c1)CNCCOCCNC3

>  <measuredParameter>
growth

>  <valueMeasured>
-53.8% (active)

$$$$
